All values here come from ChEMBL document CHEMBL4513216.

Overview of recorded cytotoxicity at 10 µM for various compounds
Test: Toxicity liver stage against HepG2, at 10uM
Assay type: cell-based
Parameters: test concentration 10 uM, cell line HepG2-A16-CD81EGFP
Details: human, HepG2-A16-CD81EGFP cells; read-out: INHIBITION
Your answer should be a plain number; it is taken to be in %.

A selection of reference data follows.
For this compound ( "O=C1CCc2cc(C(=O)NCc3ccc(Cl)s3)ccc2N1" ), measured cytotoxicity at 10 µM is 3.65

For this compound ( Cn1nc(CN2CCCCC(N)C2)c2c(Cl)cccc21 (stereo unspecified) ), measured cytotoxicity at 10 µM is -5.99

For this compound ( "Cc1ccc(Cl)cc1NCc1nc2[nH]c(C)c(C)c(=O)n2n1" ), measured cytotoxicity at 10 µM is -4.96

For this compound ( "COc1ccc(CN2C[C@@H]3COC[C@]3(COc3cccnc3)C2)cc1" ), measured cytotoxicity at 10 µM is -18.4

For this compound ( Fc1ccc(OCC2CCCO2)c(NCc2noc(C3CC3)n2)c1 (stereo unspecified) ), measured cytotoxicity at 10 µM is 9.61

New cases:
For this compound ( "CN(C)S(=O)(=O)NCCn1nc(-c2ccccc2)n(C)c1=O" ), measured cytotoxicity at 10 µM is -2.17

For this compound ( CNC(=O)C(C)CN(C)C(=O)Nc1ccc(F)c(-n2cccc2)c1 (stereo unspecified) ), measured cytotoxicity at 10 µM is -2.07

For this compound ( "O=C(Cc1ccc(F)c(Br)c1)N1CCN(CCO)CC1" ), measured cytotoxicity at 10 µM is -11.5

For this compound ( Cc1cnc(CN2CCCC2c2noc(C3CC3)n2)cn1 (stereo unspecified) ), measured cytotoxicity at 10 µM is -13.5

For this compound ( "Cc1csc(CN(C)CCCOc2cccc(C#N)c2)n1" ), measured cytotoxicity at 10 µM is -7.03

For this compound ( "O=C(CSc1ccccc1)N1C[C@@H]2CC[C@H]1CN(Cc1ccncc1)C2" ), measured cytotoxicity at 10 µM is -0.143

====

Overview of recorded cytotoxicity at 10 µM for various molecules
Experiment: Toxicity liver stage against HepG2, at 10uM
Type: cell-based
Set-up: test concentration 10 uM, cell line HepG2-A16-CD81EGFP
Details: human, HepG2-A16-CD81EGFP cells; read-out: INHIBITION
Your answer should be a plain number; it is taken to be in %.

A selection of reference data follows.
For this molecule ( Cc1c(C(C)NC(=O)Nc2ccccc2F)cnn1C (stereo not drawn) ), measured cytotoxicity at 10 µM is -45.2

For this molecule ( CC(C)NC(=O)C1CN(C(=O)COc2ccccc2)CC12CCOCC2 (stereo not drawn) ), measured cytotoxicity at 10 µM is -78.3

Kindly consider the entry below.
For this molecule ( "Cc1nc(CN2C(=O)CCC23CCN(c2ncccn2)CC3)cs1" ), measured cytotoxicity at 10 µM is -7.71

====

Assay: Toxicity liver stage against HepG2, at 10uM
Format: cell-based
Design: test concentration 10 uM, cell line HepG2-A16-CD81EGFP
Conditions: human, HepG2-A16-CD81EGFP cells; read-out: INHIBITION
measured.parameter: cytotoxicity at 10 µM (%)
Your answer should be a plain number; it is taken to be in %.

For this molecule ( CC(SCCNS(=O)(=O)c1cnn(C)c1)c1cccc(F)c1 (stereo unspecified) ), measured cytotoxicity at 10 µM is 17.3

For this molecule ( "O=C(c1sccc1C1CC1)N1CCCN(Cc2cscn2)CC1" ), measured cytotoxicity at 10 µM is -14.7

For this molecule ( "O=C(N[C@H]1CN[C@H]2CCCO[C@H]21)c1cscn1" ), measured cytotoxicity at 10 µM is -13.7

For this molecule ( "Cc1cnn(C2CN(CC(=O)NCCOc3ccccc3)C2)c1" ), measured cytotoxicity at 10 µM is -16.7

For this molecule ( "O=C(Cn1ccc(=O)[nH]c1=O)Nc1ccccc1F" ), measured cytotoxicity at 10 µM is -0.691

Kindly consider the entry below.
For this molecule ( CCc1nccn1-c1cncc(C2CCCN2)n1 (stereo unspecified) ), measured cytotoxicity at 10 µM is -6.17
